Target: Mu-type opioid receptor (Homo sapiens, UniProt P35372)
Sequence (P35372 whole entry): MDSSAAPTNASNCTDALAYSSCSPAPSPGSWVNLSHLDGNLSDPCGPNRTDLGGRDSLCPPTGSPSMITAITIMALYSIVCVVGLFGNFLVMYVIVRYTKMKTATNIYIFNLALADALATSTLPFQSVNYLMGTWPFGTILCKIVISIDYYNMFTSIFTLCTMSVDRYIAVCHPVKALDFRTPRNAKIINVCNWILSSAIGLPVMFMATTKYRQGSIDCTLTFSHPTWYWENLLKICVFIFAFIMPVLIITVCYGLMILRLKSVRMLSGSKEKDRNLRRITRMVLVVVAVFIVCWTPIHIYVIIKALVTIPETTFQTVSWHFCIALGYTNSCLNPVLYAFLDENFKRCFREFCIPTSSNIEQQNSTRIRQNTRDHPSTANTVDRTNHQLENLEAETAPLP
Assay: Displacement of [125I]IOXY from human recombinant mu opioid receptor expressed in CHO cells
Kindly supply the reported Ki values for the records listed here.
Only the number, expressed in nM, is required.

Reported Ki for COC(=O)[C@@H]1C[C@H](OC(=O)C2CCCCC2)C(=O)[C@H]2[C@@]1(C)CC[C@H]1C(=O)O[C@H](c3ccoc3)C[C@]21C was 1030

Reported Ki for COC(=O)[C@@H]1C[C@H](NC(=O)c2ccccc2)C(=O)[C@H]2[C@@]1(C)CC[C@H]1C(=O)O[C@H](c3ccoc3)C[C@]21C was 3.1

Reported Ki for COC(=O)[C@@H]1C[C@H](OC(=O)c2ccccc2[N+](=O)[O-])C(=O)[C@H]2[C@@]1(C)CC[C@H]1C(=O)O[C@H](c3ccoc3)C[C@]21C was 7550

Reported Ki for COC(=O)[C@@H]1C[C@H](OC(=O)c2ccccc2OC)C(=O)[C@H]2[C@@]1(C)CC[C@H]1C(=O)O[C@H](c3ccoc3)C[C@]21C was 1640

Reported Ki for COC(=O)[C@@H]1C[C@H](SC(=O)c2ccccc2)C(=O)[C@H]2[C@@]1(C)CC[C@H]1C(=O)O[C@H](c3ccoc3)C[C@]21C was 290

Reported Ki for COC(=O)[C@@H]1C[C@H](OC(=O)c2cc3ccccc3o2)C(=O)[C@H]2[C@@]1(C)CC[C@H]1C(=O)O[C@H](c3ccoc3)C[C@]21C was 10

Reported Ki for COC(=O)[C@@H]1C[C@H](OC(=O)c2ccsc2)C(=O)[C@H]2[C@@]1(C)CC[C@H]1C(=O)O[C@H](c3ccoc3)C[C@]21C was 10

Reported Ki for COC(=O)[C@@H]1C[C@H](NC(C)=O)C(=O)[C@H]2[C@@]1(C)CC[C@H]1C(=O)O[C@H](c3ccoc3)C[C@]21C was 4180

Reported Ki for COC(=O)[C@@H]1C[C@H](OC(=O)c2ccc(OC)cc2)C(=O)[C@H]2[C@@]1(C)CC[C@H]1C(=O)O[C@H](c3ccoc3)C[C@]21C was 70
